Examples of compounds with documented T/C follow.
# Tested on: C3H/He mice, Gardner lymphosarcoma 6C3HED ip, survival T/C
# EXPERIMENT: NCI In Vivo Anticancer Drug Screen. Data for tumor model Lymphosarcoma Gardner 6C3HED (intraperitoneal) in C3H/He mice
# ASSAY SETUP: endpoint: survival time, mean or median; dose: 25.0 mg/kg/injection; schedule: Q01DX010 (ip); vehicle: saline; higher = longer survival
Toxic doses and inconclusive results are not listed.

CN(C)/N=N/c1nc[nH]c1C(N)=O; 300 % of control

In: Request the reported T/C associated with CSc1ncnc2nc[nH]c12
Out: 100 % of control

In: Can you handle CC(=O)Nc1ccc2nc3ccc(NC(C)=O)cc3[n+](-c3ccccc3)c2c1 next?
Out: 107 % of control

* * *

Examples of compounds with documented T/C follow.
# Test system: C3H/He mice, Gardner lymphosarcoma 6C3HED ip, survival T/C
# EXPERIMENT: NCI In Vivo Anticancer Drug Screen. Data for tumor model Lymphosarcoma Gardner 6C3HED (intraperitoneal) in C3H/He mice
# ASSAY SETUP: endpoint: survival time, mean or median; dose: 1.25 mg/kg/injection; schedule: Q01DX010 (ip); vehicle: saline; higher = longer survival
Toxic doses and inconclusive results are not listed.

Known T/C results, listed for orientation:
O=C(O)c1[nH]c(=O)[nH]c(=O)c1F; 111 % of control
CC1CN1P(=S)(N1CC1C)N1CC1C (stereo not given); 103 % of control
NC(Cc1ccc(N(CCCl)CCCl)cc1)C(=O)O (stereo not given); 107 % of control
CC[n+]1c(-c2ccccc2)c2cc(N)ccc2c2ccc(N)cc21; 117 % of control

// below: T/C requested for another compound
In: Request the reported T/C associated with N#[N+]c1cnc([O-])[nH]c1=O
Out: 123 % of control

* * *

# Test system: C3H/He mice, Gardner lymphosarcoma 6C3HED ip, survival T/C
# EXPERIMENT: NCI In Vivo Anticancer Drug Screen. Data for tumor model Lymphosarcoma Gardner 6C3HED (intraperitoneal) in C3H/He mice
# ASSAY SETUP: endpoint: survival time, mean or median; dose: 125.0 mg/kg/injection; schedule: Q01DX010 (ip); vehicle: saline; higher = longer survival
Inconclusive results and toxic doses are left out.
METRIC: T/C

O=c1[nH]c(=O)n(C2CC(O)C(CO)O2)cc1C(F)(F)F (configuration not stated); 100 % of control

// below: T/C requested for another compound
In: Request the reported T/C associated with CCN(CC)C(=S)S
Out: 93 % of control

* * *

# System: C3H/He mice, Gardner lymphosarcoma 6C3HED ip, survival T/C
# EXPERIMENT: NCI In Vivo Anticancer Drug Screen. Data for tumor model Lymphosarcoma Gardner 6C3HED (intraperitoneal) in C3H/He mice
# ASSAY SETUP: endpoint: survival time, mean or median; dose: 250.0 mg/kg/injection; schedule: Q01DX010 (ip); vehicle: saline; higher = longer survival
Toxic doses and inconclusive results are not listed.
METRIC: T/C

Known T/C results, listed for orientation:
Cc1cn(C2OC(CO)C(O)C2O)c(=O)[nH]c1=O (stereo not given); 100 % of control
Cc1n[nH]c(=O)[nH]c1=O; 90 % of control

In: Hi! What's the reported T/C for CCCSc1ncnc2nc[nH]c12 on C3H/He mice, Gardner lymphosarcoma 6C3HED ip, survival T/C?
Out: 95 % of control

In: Can you handle Nc1ncccc1C(=O)O next?
Out: 107 % of control

In: Can you handle O=CN(O)CC(=O)O next?
Out: 107 % of control
